- protocol: protein stability index of a GFP-peptide fusion (yeast GPS) (PSI 1-4); higher = more stable; sorted into four equal gates, so the index is relative within each strain
- conditionDetails: doa10∆
Kindly state protein stability index for each of the entries shown.
One number for each entry.

residues	quantity	measuredValue
RNSYPASFYSVNTEKKT [RPN3]	protein stability index	3.4

Look up protein stability index for the entries below, preserving their order.
1. KKRKIHNGREGSIEEPE [MCD1]
2. APIQLKIDLLSGQFYFR [RGR1]
3. KNATEELLRLANEQLKL [CSN12]
4. PKNFGIGQAVQPKRNLS [RPL8A]
5. DSYLDADKELSFEINVK [BRR2]

Given back:
1: 3.26; 2: 2.63; 3: 3; 4: 2.74; 5: 2.83

I have 4 sequences here; please give me protein stability index for each one.
1. LRNWEELNIIPRDLLRV [PRP28]
2. ESPNYCNALIHIKFSAG [SRB4]
3. SKSPSEWQDIIHQREQE [CSE2]
4. HAKFSPVSTASYRLLPQ [RPC40]

Given back:
1.09
1.66
3.33
1.71

I have 3 sequences here; please give me protein stability index for each one.
1. TLLSPKDNGMLIIDGQI [RPO21]
2. DADGDIDMGEDKENVPV [DPB4]
3. QYILQIVSFIVNCFHED [YJL039C/NUP192]

Given back:
2.59
3.12
1.42

Asked: Recall and state the measured protein stability index for KEKIKGLQDEIMKIGGI [SMC4] .
Given back: 3

###

- protocol: protein stability index of a GFP-peptide fusion (yeast GPS) (PSI 1-4); higher = more stable; sorted into four equal gates, so the index is relative within each strain
- conditionDetails: ubr1∆
Answer each item with its documented protein stability index.
One number for each entry.

Consider the following illustrative entries.
residues	protein stability index
MNTTLGSIGSRKYSFNY [YAR002W/NUP60]	1.41
FGPIKVELPTKETVEIG [FAS1]	3.02
KLQSQSLHTKNVFGTLQ [YLR018C/POM34]	2.94

For each entry beneath this line, provide reported protein stability index.
1. WQSGLKMYDYEEKEESN [RPN11]
2. IRKLLEKINRMIIFLKN [CSI1]
3. VGKRVRYLVGGNKIQKV [RPS7A]
4. NMVRNNNNNTIDESMPD [GRR1]
5. RERRIHVTQEDFELAVG [RPT6]

Given back:
1: 3; 2: 1.19; 3: 1.7; 4: 3.12; 5: 2.61

###

- protocol: protein stability index of a GFP-peptide fusion (yeast GPS) (PSI 1-4); higher = more stable; sorted into four equal gates, so the index is relative within each strain
- conditionDetails: san1∆
quantity: protein stability index
Answers are plain numbers.

Consider the reported protein stability index for these sequences:
residues	protein stability index
AEQLKISLSVHTLALEF [RRP46]	2.37
IVLIKGISSAYIKSATL [SNU114]	2.5
TELVDGRENFVYANNPE [SIR3]	3.05

Would you mind giving protein stability index for every sequence in the list below?
1. RILSTLDRELLKPSMSV [RPT3]
2. KGDRALLVKLSKRLPLR [BRR2]

Given back:
[3.07, 2.34]

Please look at the items below and tell me protein stability index for each one, in order.
1. TSQHSDSLTQNNNNAPI [YOR098C/NUP1]
2. AQDVALAKKWFLQHPDE [PRP8]
3. YTYHSTNKDNKAELIKP [ARP9]

Given back:
1. 2.94
2. 2.33
3. 3.06

Record protein stability index per entry; entries follow.
1. RQKINGCEANIHSLVKQ [YIL149C/MLP2]
2. RMRNRALREMRKSDQQD [POP1]
3. HIEKLENEFVVLLDARD [CDC53]

Given back:
[2.98, 3.23, 2.9]

###

Can you tell me protein stability index for the items I'm about to list?
- protocol: protein stability index of a GFP-peptide fusion (yeast GPS) (PSI 1-4); higher = more stable; sorted into four equal gates, so the index is relative within each strain
- conditionDetails: doa10∆

Illustrative cases are given below, each with its answer.
residues	measuredValue
GQLLSVKFLVYQGVYSM [YML031W/NDC1]	1.61
NTPLSLPTRGTLESLEN [COR1]	3.21
MSDLFTFDWFIKTRTVH [ISW2]	2.88
EPLAIALSMGKSSAFVI [ARP7]	1.48
PVFHKKAKTTKKVVLRL [RPL42A]	2.95

Provide protein stability index values for the following items, in order.
1. TSLFGSSSAQQTKSNGT [YJL041W/NSP1]
2. ATGHRVLIFFQMTQIMD [SNF2]

Given back:
3.23
1.84

###

- protocol: protein stability index of a GFP-peptide fusion (yeast GPS) (PSI 1-4); higher = more stable; sorted into four equal gates, so the index is relative within each strain
- conditionDetails: pdr5∆
Kindly supply the reported protein stability index values for the records listed here.
One number for each entry.

# count of solved cases: 5
residues	protein stability index
NDIAGQPQALQKSGRPV [RPO21]	3.16
NVSFVLPDEKSDAMSID [YCG1]	3.3
ILTGTPLQNNLPELWAL [SNF2]	2.4
NIDSLKFNELVKLMKNI [BRR2]	1.63
MSQYQSTMKENKDLSEL [YIL149C/MLP2]	3.12

Count: 2. Required value per item: protein stability index.
1. EHGLQITHTENYNDLIV [BRN1]
2. LSGKFSTIPTRENGKGG [ROX3]

Given back:
[2.81, 3.22]

Would you mind giving protein stability index for every sequence in the list below?
1. KTADVKRQYVKQFLTKD [RPL20A]
2. EFMAGFNIISMTLKEMY [SMC4]
3. SKKISNTAAALVSLLDE [YAR002W/NUP60]
4. QEHNIQDSNVMPGSQIN [SNF2]
5. FKSPIDNSESHPFIPLL [RRP6]
6. WLWPLCRGELKADIGKP [CDC53]

Given back:
2.92
2.83
2.67
3.11
2.23
2.06

Asked: For the sequence SPKPYAVKYGLNHVVAL [RPL8A] , report protein stability index.
Given back: 2.42

###

- protocol: protein stability index of a GFP-peptide fusion (yeast GPS) (PSI 1-4); higher = more stable; sorted into four equal gates, so the index is relative within each strain
- conditionDetails: san1∆
Respond with yes (1) for protein stability index values of 3 and above, no (0) for values below.

Please review the entries below; each comes with its answer.
residues	groupLabel
RNLQMGLRNQNMVRNNN [GRR1]	no (0)
EASSLGYLDDSEILIIS [IRR1]	no (0)

Could you now consider this next sequence?
Asked: Item VDPRIINSENDYSRKQL [NUT1] with protein stability index of 3 or above?
Given back: no (0)

###

Please provide measured protein stability index for the entries that follow.
- protocol: protein stability index of a GFP-peptide fusion (yeast GPS) (PSI 1-4); higher = more stable; sorted into four equal gates, so the index is relative within each strain
- conditionDetails: doa10∆
Numbers only.

Consider the reported protein stability index for these sequences:
residues	quantity	measuredValue
LPEKVNFRTMQQQQMQQ [SSN2]	protein stability index	2.3
DATFAGHSLGEYAALAS [FAS1]	protein stability index	2.73
SEEVDDLSMVPKMKDEE [SNF2]	protein stability index	2.78

Look at each sequence and report its protein stability index.
1. KLLQLAGVEDVYTQSNG [RPS2]
2. QEHNIQDSNVMPGSQIN [SNF2]
3. SYHLWPSFTDEQWITIE [PRP8]
4. EVILVDPQHKAIRRDAR [RPL15A]
5. GIHDGHIKKLLHQYYGD [FAS1]

Given back:
1.56
3.11
2.44
2.87
1.44

###

- protocol: protein stability index of a GFP-peptide fusion (yeast GPS) (PSI 1-4); higher = more stable; sorted into four equal gates, so the index is relative within each strain
- conditionDetails: doa10∆
For each entry below, report its protein stability index value.
Numbers only.

residues	protein stability index
TAAETFKLFNKYRPETA [RPL8A]	2.8
KELDQELIIDPLFKKAL [BRN1]	3.23
GQCRTELEGSFNKSAEL [YCS4]	3.04
NKGRAVYINPSGEKIDF [BRR2]	2.98

Each of the following entries comes with a recorded value; kindly state protein stability index for each.
1. KTWEKVTLDFGNIFADL [SMC2]
2. TLVEIFLERKCVHMVYE [SSN3]
3. HNQSPRNTYQSAMGKQA [RPB2]
4. RVLQLLAVIMDNIGEID [YCG1]

Given back:
2.81
1.35
2.48
1.93

###

- protocol: protein stability index of a GFP-peptide fusion (yeast GPS) (PSI 1-4); higher = more stable; sorted into four equal gates, so the index is relative within each strain
- conditionDetails: pdr5∆
Exercise: state measured protein stability index for each of the sequences provided.
Numbers only.

These solved cases illustrate the format of a correct answer.
residues	protein stability index
LAGKVGSIRVHKSGKLS [RPC53]	1.59
ASAASEAIRDPKNSSSP [SSN8]	3.18

Please report protein stability index for every entry that follows.
1. TTFTHCEIHPSMILGVA [RPB2]
2. KYYLEESNVNDSDMLTK [NUT1]
3. DANRNANNIVNIVSDAG [GRR1]
4. LALQRGATVFVNHLLLF [DPB4]
5. NGILPDDELMNWRRLSG [SSN2]
6. AAKPDNLANFSNEVAMN [SWP82]

Given back:
1: 2.39; 2: 3.15; 3: 3.06; 4: 1.26; 5: 2.9; 6: 3.22

Values from the supplement of paper PMC9732359
